- PROTOCOL_DETAILS: AUC in Wistar-Han rat at 225 mg/kg, po administered once daily for 7 days
- Format: ADME, organism-based
- Design: time 7 day, dose 225 mg/kg, route po
- PARTICULARS: in vivo
OBSERVATION_TYPE: AUC at 168 h (µM·h)

>>> print(df.to_string())
                                        mol  observation_type  result
0  C[C@@]1(N2CCN(c3cc4cc(NC(=O)[C@H]5CC56CCOCC6)ncc4cc3Cl)CC2)COC[C@@H]1O      AUC at 168 h      88

###

- PROTOCOL_DETAILS: MRT in rhesus monkey at 3 mg/kg, iv measured after 24 hrs by LC-MS/MS analysis
- Type: ADME, organism-based, Macaca mulatta
- PARTICULARS: in vivo
OBSERVATION_TYPE: MRT (h)

>>> df
                                        mol  result
0  C[C@@]1(N2CCN(c3cc4cc(NC(=O)[C@H]5CC56CCOCC6)ncc4cc3Cl)CC2)COC[C@@H]1O     3.6

###

- PROTOCOL_DETAILS: Protein binding in rhesus monkey plasma incubated for 4 hrs by equilibrium dialysis method
- Assay type: ADME, cell-free, Macaca mulatta
- PARTICULARS: read-out: PPB (converted)
OBSERVATION_TYPE: fraction unbound at 4 h

In [3]: df
Out[3]:
                                        mol  result
0  C[C@@]1(N2CCN(c3cc4cc(NC(=O)[C@H]5CC56CCOCC6)ncc4cc3Cl)CC2)COC[C@@H]1O    0.12

###

- TESTED_ON: Nav1.5 (Homo sapiens, UniProt Q14524)
- Sequence (Q14524 whole entry): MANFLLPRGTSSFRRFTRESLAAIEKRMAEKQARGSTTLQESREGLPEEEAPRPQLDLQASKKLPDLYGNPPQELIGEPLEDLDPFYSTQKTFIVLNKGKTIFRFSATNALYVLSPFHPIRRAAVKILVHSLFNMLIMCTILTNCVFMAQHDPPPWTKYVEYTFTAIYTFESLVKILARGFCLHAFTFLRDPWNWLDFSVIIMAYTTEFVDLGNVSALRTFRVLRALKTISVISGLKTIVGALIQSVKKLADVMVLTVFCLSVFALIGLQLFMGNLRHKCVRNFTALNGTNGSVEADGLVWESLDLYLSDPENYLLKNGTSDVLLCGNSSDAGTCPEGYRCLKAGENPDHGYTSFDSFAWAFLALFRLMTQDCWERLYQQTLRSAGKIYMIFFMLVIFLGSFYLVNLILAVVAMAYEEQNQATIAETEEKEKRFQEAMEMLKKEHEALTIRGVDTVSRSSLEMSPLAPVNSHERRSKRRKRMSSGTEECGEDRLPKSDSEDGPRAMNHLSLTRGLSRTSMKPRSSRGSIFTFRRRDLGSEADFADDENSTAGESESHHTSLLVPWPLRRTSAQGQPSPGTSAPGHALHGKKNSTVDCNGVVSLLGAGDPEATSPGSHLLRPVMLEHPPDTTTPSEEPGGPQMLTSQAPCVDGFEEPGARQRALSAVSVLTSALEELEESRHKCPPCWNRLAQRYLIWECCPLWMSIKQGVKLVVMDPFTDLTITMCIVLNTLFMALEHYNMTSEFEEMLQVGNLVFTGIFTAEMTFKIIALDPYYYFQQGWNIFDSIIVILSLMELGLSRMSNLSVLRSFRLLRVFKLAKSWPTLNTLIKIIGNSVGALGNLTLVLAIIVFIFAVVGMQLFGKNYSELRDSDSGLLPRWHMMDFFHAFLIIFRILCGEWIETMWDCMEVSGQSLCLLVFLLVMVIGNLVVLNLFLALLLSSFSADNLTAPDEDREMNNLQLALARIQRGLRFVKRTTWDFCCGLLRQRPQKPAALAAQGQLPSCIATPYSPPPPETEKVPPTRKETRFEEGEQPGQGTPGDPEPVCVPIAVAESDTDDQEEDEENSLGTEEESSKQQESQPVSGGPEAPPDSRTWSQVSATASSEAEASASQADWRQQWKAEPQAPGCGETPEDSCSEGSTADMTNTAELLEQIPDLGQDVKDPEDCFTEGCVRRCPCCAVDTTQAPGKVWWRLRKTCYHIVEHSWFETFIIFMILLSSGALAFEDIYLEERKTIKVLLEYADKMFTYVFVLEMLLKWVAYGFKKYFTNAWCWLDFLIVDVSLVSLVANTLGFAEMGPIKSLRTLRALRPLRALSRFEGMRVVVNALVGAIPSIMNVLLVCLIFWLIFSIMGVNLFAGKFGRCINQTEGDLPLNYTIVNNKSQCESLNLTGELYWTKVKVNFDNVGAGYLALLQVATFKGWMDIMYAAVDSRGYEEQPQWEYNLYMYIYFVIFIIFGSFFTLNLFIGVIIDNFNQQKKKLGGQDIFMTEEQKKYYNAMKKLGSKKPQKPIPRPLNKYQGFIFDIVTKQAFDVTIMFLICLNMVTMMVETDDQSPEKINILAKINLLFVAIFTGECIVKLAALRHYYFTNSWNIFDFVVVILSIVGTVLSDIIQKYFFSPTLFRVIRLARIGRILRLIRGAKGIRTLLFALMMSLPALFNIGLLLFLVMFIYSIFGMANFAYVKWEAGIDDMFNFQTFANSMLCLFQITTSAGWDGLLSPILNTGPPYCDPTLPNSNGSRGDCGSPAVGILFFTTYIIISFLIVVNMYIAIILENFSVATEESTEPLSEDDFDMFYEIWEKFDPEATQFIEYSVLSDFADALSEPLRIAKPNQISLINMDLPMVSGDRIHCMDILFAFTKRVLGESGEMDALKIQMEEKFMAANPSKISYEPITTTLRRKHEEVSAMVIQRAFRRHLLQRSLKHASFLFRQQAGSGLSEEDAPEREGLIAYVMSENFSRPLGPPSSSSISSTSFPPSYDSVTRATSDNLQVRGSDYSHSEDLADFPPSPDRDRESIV
- PROTOCOL_DETAILS: Inhibition of human Nav1.5 expressed in HEK293 cells at 30 uM by QPatch voltage clamp assay relative to control
- Format: cell-based
- PARTICULARS: HEK293 cells expressing human Nav1.5
OBSERVATION_TYPE: inhibition at 30 µM (%)

>>> df
                                        mol  result
0  C[C@@]1(N2CCN(c3cc4cc(NC(=O)[C@H]5CC56CCOCC6)ncc4cc3Cl)CC2)COC[C@@H]1O      34

###

- PROTOCOL_DETAILS: Toxicity in Wistar-Han rat assessed as NOAEL measured after 7 days
- PARTICULARS: in vivo, time 7 day
OBSERVATION_TYPE: NOAEL at 168 h (mg/kg/day)

>>> df
                                        mol  readout_units  result
0  C[C@@]1(N2CCN(c3cc4cc(NC(=O)[C@H]5CC56CCOCC6)ncc4cc3Cl)CC2)COC[C@@H]1O      mg/kg/day     225

###

- PROTOCOL_DETAILS: Total clearance in Wistar-Han rat at 3 mg/kg, iv measured after 24 hrs by LC-MS/MS analysis
- Format: ADME, organism-based
- PARTICULARS: in vivo
OBSERVATION_TYPE: clearance (mL/min/kg)

>>> df
                                        mol  result
0  C[C@@]1(N2CCN(c3cc4cc(NC(=O)[C@H]5CC56CCOCC6)ncc4cc3Cl)CC2)COC[C@@H]1O      56

###

- PROTOCOL_DETAILS: Unbound brain-to-plasma concentration ratio in iv dosed Wistar-Han rat administered as cassette dose by LC-MS/MS analysis
- Type: ADME, organism-based
- PARTICULARS: read-out: K(p,uu,brain)
OBSERVATION_TYPE: Kp uu

                                   compound  observation_type  result
0  C[C@@]1(N2CCN(c3cc4cc(NC(=O)[C@H]5CC56CCOCC6)ncc4cc3Cl)CC2)COC[C@@H]1O             Kp uu     0.3
1  COC(C)(C)[C@@H]1C[C@H]1C(=O)Nc1cc2cc(C3CCN([C@]4(C)COC[C@@H]4O)CC3)c(Cl)cc2cn1             Kp uu     0.3
2  C[C@@]1(N2CCC(c3cc4cc(NC(=O)C5CC56CC6)ncc4cc3Cl)CC2)COC[C@@H]1O (some centres undefined)             Kp uu     0.6
3  Cn1ccc([C@H]2C[C@@H]2C(=O)Nc2cc3cc(C4CCN([C@]5(C)COC[C@@H]5O)CC4)c(Cl)cc3cn2)n1             Kp uu     0.3

###

- PROTOCOL_DETAILS: Intrinsic clearance in Wistar-Han rat at 0.1 mg/kg, iv administered as cassette dose by LC-MS/MS analysis
- Format: ADME, organism-based
- PARTICULARS: in vivo
OBSERVATION_TYPE: CL

>>> print(df.to_string())
                                        mol         result
0  C[C@@]1(N2CCC(c3cc4cc(NC(=O)C5CC5)ncc4cc3Cl)CC2)COC[C@@H]1O  684 mL/min/kg
1  Cn1cc([C@H]2C[C@@H]2C(=O)Nc2cc3cc(C4CCN([C@]5(C)COC[C@@H]5O)CC4)c(Cl)cc3cn2)cn1  302 mL/min/kg
2  COC(C)(C)[C@@H]1C[C@H]1C(=O)Nc1cc2cc(C3CCN([C@]4(C)COC[C@@H]4O)CC3)c(Cl)cc2cn1  840 mL/min/kg

###

- Test system: rat Mdr1a P-gp
- PROTOCOL_DETAILS: Apparent permeability across apical to basolateral side in LLC-PK1 cells transfected with rat Mdr1a P-gp incubated for 3 hrs by LC-MS/MS analysis
- PARTICULARS: pig
OBSERVATION_TYPE: Papp A→B at 3 h (×10⁻⁶ cm/s)

                                   compound  readout_units  result
0  CC1(N2CCC(c3cc4cc(NC(=O)C5CC5)ncc4cc3Cl)CC2)COC1     ×10⁻⁶ cm/s      34
1  CC(C)(O)[C@H]1C[C@H]1C(=O)Nc1cc2cc(C3CCN([C@]4(C)COC[C@@H]4O)CC3)c(Cl)cc2cn1     ×10⁻⁶ cm/s      33
2  C[C@@]1(N2CCC(c3cc4cc(NC(=O)C5CC56CC6)ncc4cc3Cl)CC2)COC[C@@H]1O (stereo not given in full)     ×10⁻⁶ cm/s      30
3  Cn1cc([C@H]2C[C@@H]2C(=O)Nc2cc3cc(C4CCN([C@]5(C)COC[C@@H]5O)CC4)c(Cl)cc3cn2)cn1     ×10⁻⁶ cm/s      29
4  C[C@@]1(N2CCN(c3cc4cc(NC(=O)[C@H]5CC56CCOCC6)ncc4cc3Cl)CC2)COC[C@@H]1O     ×10⁻⁶ cm/s      30

###

- TESTED_ON: KCNQ1/KCNE1 (IKs, Kv7.1/MinK) (Homo sapiens, UniProt P15382+P51787)
- PROTOCOL_DETAILS: Inhibition of human KCNQ1/KCNE1 expressed in HEK293 cells at 30 uM by QPatch voltage clamp assay relative to control
- Type: cell-based
- PARTICULARS: HEK293 cells expressing human KCNQ1/KCNE1
Each record here notes measured inhibition at 30 µM.
OBSERVATION_TYPE: inhibition at 30 µM (%)

>>> print(df.to_string())
                                   compound                                 tested_on  readout_units  result
0  C[C@@]1(N2CCC(c3cc4cc(NC(=O)C5CC56CC6)ncc4cc3Cl)CC2)COC[C@@H]1O (some centres not stated)  KCNQ1/KCNE1 (IKs, Kv7.1/MinK) (Homo sapiens, UniProt P15382+P51787)              %      15
1  C[C@@]1(N2CCN(c3cc4cc(NC(=O)[C@H]5CC56CCOCC6)ncc4cc3Cl)CC2)COC[C@@H]1O  KCNQ1/KCNE1 (IKs, Kv7.1/MinK) (Homo sapiens, UniProt P15382+P51787)              %      18

###

- PROTOCOL_DETAILS: MRT in Beagle dog at 0.05 mg/kg, iv administered as cassette dose by LC-MS/MS analysis
- Format: ADME, organism-based, Canis lupus familiaris
- PARTICULARS: in vivo
OBSERVATION_TYPE: MRT (h)

>>> print(df.to_string())
                                   molecule  observation_type  result
0  C[C@@]1(N2CCC(c3cc4cc(NC(=O)[C@H]5CC56CCOCC6)ncc4cc3Cl)CC2)COC[C@@H]1O               MRT      12
1  Cc1cc2cnc(NC(=O)C3CC34CC4)cc2cc1C1CCN([C@]2(C)COC[C@@H]2O)CC1 (some centres not stated)               MRT     9.8
